Where these numbers come from: paper PMC6009956

- assaySystem: EGFR (Homo sapiens)
- Sequence (P00533 25-1210): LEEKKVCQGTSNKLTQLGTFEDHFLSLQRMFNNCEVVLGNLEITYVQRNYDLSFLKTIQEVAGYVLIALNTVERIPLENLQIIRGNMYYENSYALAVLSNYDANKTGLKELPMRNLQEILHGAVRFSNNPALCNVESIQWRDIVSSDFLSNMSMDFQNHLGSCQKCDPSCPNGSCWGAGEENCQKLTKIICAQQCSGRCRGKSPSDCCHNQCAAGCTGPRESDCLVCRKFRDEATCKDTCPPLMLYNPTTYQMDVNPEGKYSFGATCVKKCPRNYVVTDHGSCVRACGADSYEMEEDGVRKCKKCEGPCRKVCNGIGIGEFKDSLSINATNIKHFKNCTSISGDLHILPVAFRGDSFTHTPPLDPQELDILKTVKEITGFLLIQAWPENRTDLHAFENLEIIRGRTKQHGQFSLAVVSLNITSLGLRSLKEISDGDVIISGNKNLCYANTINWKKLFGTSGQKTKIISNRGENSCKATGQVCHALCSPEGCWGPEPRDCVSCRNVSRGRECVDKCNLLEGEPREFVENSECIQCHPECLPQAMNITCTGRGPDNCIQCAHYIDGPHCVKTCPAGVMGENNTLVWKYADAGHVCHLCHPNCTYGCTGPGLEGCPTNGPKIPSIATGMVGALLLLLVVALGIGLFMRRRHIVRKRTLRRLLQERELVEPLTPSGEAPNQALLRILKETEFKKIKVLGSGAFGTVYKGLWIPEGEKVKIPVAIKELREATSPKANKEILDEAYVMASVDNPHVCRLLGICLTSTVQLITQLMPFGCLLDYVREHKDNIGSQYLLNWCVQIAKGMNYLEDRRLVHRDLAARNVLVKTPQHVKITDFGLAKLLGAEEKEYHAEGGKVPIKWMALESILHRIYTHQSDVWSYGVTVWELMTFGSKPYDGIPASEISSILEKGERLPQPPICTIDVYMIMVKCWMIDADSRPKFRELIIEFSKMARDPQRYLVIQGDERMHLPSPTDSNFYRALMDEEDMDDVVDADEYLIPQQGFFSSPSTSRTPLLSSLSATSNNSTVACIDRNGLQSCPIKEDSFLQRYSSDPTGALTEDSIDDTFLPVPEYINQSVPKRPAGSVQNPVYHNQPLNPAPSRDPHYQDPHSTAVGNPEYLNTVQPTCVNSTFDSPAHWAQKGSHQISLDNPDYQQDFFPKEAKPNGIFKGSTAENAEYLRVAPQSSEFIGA
- protocolSummary: ADP-Glo kinase assay, EGFR
- Format: biochemical
- Set-up: purchased BPS Bioscience (assay run externally by the vendor)
- conditionInfo: Log[nM] 5.0; Set3

structureSmilesString: Clc1cccc(Nc2ncnc3[nH]ccc23)c1
EGFR % Activity Set3: 0%

structureSmilesString: FC(F)(F)c1cccc(Nc2ncnc3[nH]ccc23)c1
EGFR % Activity Set3: 1%

structureSmilesString: c1ccc(Nc2ncnc3[nH]ccc23)cc1
EGFR % Activity Set3: 1%

structureSmilesString: Cc1ccccc1Nc1ncnc2[nH]ccc12
EGFR % Activity Set3: 3%

structureSmilesString: Cc1cccc(Nc2ncnc3[nH]ccc23)c1
EGFR % Activity Set3: 0%

structureSmilesString: Clc1ccccc1Nc1ncnc2[nH]ccc12
EGFR % Activity Set3: 4%

structureSmilesString: Nc1nc(Nc2cccc(Br)c2)c2cc[nH]c2n1
EGFR % Activity Set3: 2%

structureSmilesString: COc1ccc(Nc2ncnc3[nH]ccc23)cc1
EGFR % Activity Set3: 4%

structureSmilesString: Clc1ccc(Nc2ncnc3[nH]ccc23)cc1Br
EGFR % Activity Set3: 0%

structureSmilesString: Clc1ccc(Nc2ncnc3[nH]ccc23)cc1
EGFR % Activity Set3: 1%

structureSmilesString: c1ccc(Oc2ccc(Nc3ncnc4[nH]ccc34)cc2)cc1
EGFR % Activity Set3: 4%

structureSmilesString: Cc1ccc(Nc2ncnc3[nH]ccc23)cc1
EGFR % Activity Set3: 2%

structureSmilesString: Fc1cc(Nc2ncnc3[nH]ccc23)ccc1Cl
EGFR % Activity Set3: 0%

structureSmilesString: Brc1ccc(Nc2ncnc3[nH]ccc23)cc1
EGFR % Activity Set3: 1%

structureSmilesString: c1ccc(Cc2ccc(Nc3ncnc4[nH]ccc34)cc2)cc1
EGFR % Activity Set3: 2%

structureSmilesString: Brc1cccc(Nc2ncnc3[nH]ccc23)c1
EGFR % Activity Set3: 0%

structureSmilesString: Clc1ccc(Nc2ncnc3[nH]ccc23)cc1Cl
EGFR % Activity Set3: 1%
